# System Tested: HLA-A*69:01
# Method Notes: IEDB peptide-MHC binding, purified MHC/competitive/fluorescence; filed as Kd, often an IC50 or EC50 that approximates it; bounds were set here for any values at or beyond the usual limits of such assays
# Condition Info: source organism: Entamoeba dispar SAW760
pKd: −log10 of the molar value.
Measure Name: pKd

IN: Looking for the measured pKd of STYQFSLMQ , can you help?
OUT: ≤ 4.70

----------
# System Tested: HLA-A*03:01
# Method Notes: IEDB peptide-MHC binding, purified MHC/direct/fluorescence; filed as Kd, often an IC50 or EC50 that approximates it; bounds were set here for any values at or beyond the usual limits of such assays
# Condition Info: source organism: Mycobacterium tuberculosis C
pKd: −log10 of the molar value.
Measure Name: pKd

IN: Looking for the measured pKd of FPRYPLNVL , can you help?
OUT: ≤ 4.70

----------
Would you mind telling me the reported Kd of each entry?
# System Tested: HLA-B*46:01
# Method Notes: IEDB peptide-MHC binding, purified MHC/direct/fluorescence; filed as Kd, often an IC50 or EC50 that approximates it; bounds were set here for any values at or beyond the usual limits of such assays
# Condition Info: source organism: Mycobacterium tuberculosis

1. ALFDRPAFK
≥ 20 µM

IN: Looking for the measured Kd of QINELHHSK , can you help?
OUT: ≥ 20 µM

----------
# System Tested: HLA-A*30:01
# Method Notes: IEDB peptide-MHC binding, purified MHC/direct/fluorescence; filed as Kd, often an IC50 or EC50 that approximates it; bounds were set here for any values at or beyond the usual limits of such assays
# Condition Info: source organism: Rickettsia sibirica
Measure Name: pKd
One number for each entry, as −log10 of the molar value.

IN: Looking for the measured pKd of RTGDIGCFK , can you help?
OUT: 7.45

----------
# System Tested: HLA-A*31:01
# Method Notes: IEDB peptide-MHC binding, purified MHC/competitive/radioactivity; filed as Kd, often an IC50 or EC50 that approximates it; bounds were set here for any values at or beyond the usual limits of such assays
# Condition Info: source organism: Mammarenavirus lassaense
pKd: −log10 of the molar value.
Measure Name: pKd

IN: Looking for the measured pKd of SVANGVPVH , can you help?
OUT: ≤ 4.52

----------
# System Tested: HLA-B*35:01
# Method Notes: IEDB peptide-MHC binding, purified MHC/competitive/fluorescence; filed as Kd, often an IC50 or EC50 that approximates it; bounds were set here for any values at or beyond the usual limits of such assays
# Condition Info: source organism: Zaire ebolavirus
Would you mind telling me the reported Kd of each entry?
Give bare numbers, in nM.

1. FPSNMMVVT
0.4

Kindly consider the entry below.
IN: Looking for the measured Kd of FRYEFTAPF , can you help?
OUT: 952

----------
# System Tested: HLA-B*53:01
# Method Notes: IEDB peptide-MHC binding, purified MHC/competitive/radioactivity; filed as Kd, often an IC50 or EC50 that approximates it; bounds were set here for any values at or beyond the usual limits of such assays
# Condition Info: source organism: Dengue virus 4 Dominica/814669/1981
Measure Name: pKd
Give bare numbers, as −log10 of the molar value.

IN: Find pKd (HLA-B*53:01) for the entry LATGPILTLW
OUT: 7.82

----------
# System Tested: HLA-B*35:01
# Method Notes: IEDB peptide-MHC binding, purified MHC/competitive/fluorescence; filed as Kd, often an IC50 or EC50 that approximates it; bounds were set here for any values at or beyond the usual limits of such assays
# Condition Info: source organism: Salmonella enterica subsp. enterica serovar Typhi
Measure Name: pKd
Give bare numbers, as −log10 of the molar value.

IN: Looking for the measured pKd of WPDVFSVSV , can you help?
OUT: 8.89

----------
# System Tested: HLA-A*24:03
# Method Notes: IEDB peptide-MHC binding, purified MHC/direct/fluorescence; filed as Kd, often an IC50 or EC50 that approximates it; bounds were set here for any values at or beyond the usual limits of such assays
# Condition Info: source organism: Campylobacter jejuni
pKd: −log10 of the molar value.
Measure Name: pKd

IN: Find pKd (HLA-A*24:03) for the entry SFGAGTLAK
OUT: ≤ 4.70

----------
# System Tested: HLA-A*02:03
# Method Notes: IEDB peptide-MHC binding, purified MHC/direct/fluorescence; filed as Kd, often an IC50 or EC50 that approximates it; bounds were set here for any values at or beyond the usual limits of such assays
# Condition Info: source organism: Ebola virus Yambio0403
pKd: −log10 of the molar value.
Measure Name: pKd

IN: Find pKd (HLA-A*02:03) for the entry FRYEFTAPF
OUT: ≤ 4.70

----------
# System Tested: HLA-A*02:01
# Method Notes: IEDB peptide-MHC binding, purified MHC/direct/fluorescence; filed as Kd, often an IC50 or EC50 that approximates it; bounds were set here for any values at or beyond the usual limits of such assays
# Condition Info: source organism: Campylobacter jejuni
pKd: −log10 of the molar value.
Measure Name: pKd

IN: Looking for the measured pKd of SFGAGTLAK , can you help?
OUT: ≤ 4.70

----------
# System Tested: HLA-A*69:01
# Method Notes: IEDB peptide-MHC binding, purified MHC/direct/fluorescence; filed as Kd, often an IC50 or EC50 that approximates it; bounds were set here for any values at or beyond the usual limits of such assays
# Condition Info: source organism: Rickettsia conorii
Measure Name: Kd

IN: Looking for the measured Kd of RTGDIGCFK , can you help?
OUT: ≥ 20 µM

----------
# System Tested: HLA-A*02:06
# Method Notes: IEDB peptide-MHC binding, purified MHC/competitive/fluorescence; filed as Kd, often an IC50 or EC50 that approximates it; bounds were set here for any values at or beyond the usual limits of such assays
# Condition Info: source organism: Bacillus cereus
Measure Name: Kd (nM)
Numbers only, in nM.

IN: Looking for the measured Kd of MSDIFASEV , can you help?
OUT: 12.1

----------
# System Tested: HLA-A*24:02
# Method Notes: IEDB peptide-MHC binding, purified MHC/competitive/radioactivity; filed as Kd, often an IC50 or EC50 that approximates it; bounds were set here for any values at or beyond the usual limits of such assays
# Condition Info: source organism: Dengue virus 4 Philippines/H241/1956
Measure Name: Kd
Value and unit, in that order.

Example cases with answers are listed next.
1) MWHVTRGSVI
1280 nM
2) GWKNWQEVPF
190 nM

IN: Looking for the measured Kd of PYMPTVIEEL , can you help?
OUT: 211 nM

----------
# System Tested: HLA-A*69:01
# Method Notes: IEDB peptide-MHC binding, purified MHC/competitive/fluorescence; filed as Kd, often an IC50 or EC50 that approximates it; bounds were set here for any values at or beyond the usual limits of such assays
# Condition Info: source organism: Homo sapiens
pKd: −log10 of the molar value.
Measure Name: pKd

IN: Looking for the measured pKd of FTGEYLLRL , can you help?
OUT: ≤ 4.70

----------
# System Tested: HLA-B*15:01
# Method Notes: IEDB peptide-MHC binding, purified MHC/competitive/fluorescence; filed as Kd, often an IC50 or EC50 that approximates it; bounds were set here for any values at or beyond the usual limits of such assays
# Condition Info: source organism: Orthohantavirus tulaense
Measure Name: Kd

IN: Looking for the measured Kd of SLMSRVVYK , can you help?
OUT: ≥ 20 µM

----------
# System Tested: HLA-A*03:01
# Method Notes: IEDB peptide-MHC binding, purified MHC/competitive/fluorescence; filed as Kd, often an IC50 or EC50 that approximates it; bounds were set here for any values at or beyond the usual limits of such assays
# Condition Info: source organism: Escherichia coli O139:H28 str. E24377A
pKd: −log10 of the molar value.
Measure Name: pKd

IN: Looking for the measured pKd of LANWCLLNY , can you help?
OUT: ≤ 4.70

----------
# System Tested: HLA-A*32:07
# Method Notes: IEDB peptide-MHC binding, purified MHC/competitive/fluorescence; filed as Kd, often an IC50 or EC50 that approximates it; bounds were set here for any values at or beyond the usual limits of such assays
# Condition Info: source organism: Escherichia coli B171
Measure Name: pKd
One number for each entry, as −log10 of the molar value.

IN: Looking for the measured pKd of HELSLFWPL , can you help?
OUT: 7.24

----------
# System Tested: HLA-B*27:03
# Method Notes: IEDB peptide-MHC binding, purified MHC/competitive/fluorescence; filed as Kd, often an IC50 or EC50 that approximates it; bounds were set here for any values at or beyond the usual limits of such assays
# Condition Info: source organism: Entamoeba dispar SAW760
Measure Name: Kd

IN: Looking for the measured Kd of STYQFSLMQ , can you help?
OUT: ≥ 20 µM

----------
Would you mind telling me the reported pKd of each entry?
# System Tested: HLA-A*69:01
# Method Notes: IEDB peptide-MHC binding, purified MHC/direct/fluorescence; filed as Kd, often an IC50 or EC50 that approximates it; bounds were set here for any values at or beyond the usual limits of such assays
# Condition Info: source organism: Marburg virus - Musoke, Kenya, 1980
pKd: −log10 of the molar value.

1) LFLSFCSLF
≤ 4.70

IN: Looking for the measured pKd of CVFKFIVAK , can you help?
OUT: ≤ 4.70
